# EXPERIMENTAL_SYSTEM: T1, O6-AA
# T1 chain: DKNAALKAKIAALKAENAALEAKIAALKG
# TEST_PROTOCOL: two-hybrid library CCmax;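 further: natural log of median RNA to DNA barcode read ratio; higher means stronger binding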
# CONDITIONS_USED: mean of both orientations
MEASURE: interaction score

{"BINDER": "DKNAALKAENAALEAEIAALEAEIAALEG [O1-AA]", "REPORTED": -1.79}
{"BINDER": "DENAALEAEIAALEAKNAALKAEIAALEG [O5-AA]", "REPORTED": 1.88}
{"BINDER": "DKNAALKAKIAALKAKNAALKAEIAALEG [O13-AA]", "REPORTED": 1.5}

1 = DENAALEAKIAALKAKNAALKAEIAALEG [4H1401-AA]
2 = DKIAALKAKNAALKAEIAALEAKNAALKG [4H3016-AA]
3 = DKIAALKAEIAALEAKNAALKAKNAALKG [O4-AA]
4 = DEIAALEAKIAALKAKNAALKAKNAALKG [4H384-AA]
Sort the binders on interaction score; start with the lowest figure. Put the labels in the requested order and list them out.
4, 3, 2, 1
(4: -0.52, 3: -0.0762, 2: 0.964, 1: 1.98)
